Biological target: T1, Human CD3eg linker (human)
T1 construct: Single chain: epsilon and gamma subunits of human CD3 joined by a 29-mer linker, Flag-tag at the C-terminus; also called recombinant human CD3
T1 chain: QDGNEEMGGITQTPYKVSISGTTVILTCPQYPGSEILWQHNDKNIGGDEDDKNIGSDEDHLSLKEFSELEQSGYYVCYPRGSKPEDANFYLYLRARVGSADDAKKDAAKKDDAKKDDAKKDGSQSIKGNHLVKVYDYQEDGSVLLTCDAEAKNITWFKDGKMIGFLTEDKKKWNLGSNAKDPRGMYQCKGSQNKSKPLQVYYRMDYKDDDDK
Experiment: Biacore SPR, vs template H183/L072
Short version: fold change of affinity at least 0.5 fold is 1 (yes), less is 0 (no).

Ask | // inclusive: fold change of affinity at least 0.5 fold? input: H183/L072 VH A54W (antibody, name in Kabat numbering, V domains shown) VH: QVQLVESGGGLVQPGRSLRLSCAASGFTFSNAWMHWVRQAPGKGLEWVAQIKDKGNWYAAYYAPSVKGRFTISRDDSKNSIYLQMNSLKTEDTAVYYCHYVHYASASTVLPAFGVDAWGQGTTVTVSS VL: DIVMTQSPLSLPVTPGEPASISCQASQELVHMNRNTYLHWYQQKPGQAPRLLIYKVSNRFPGVPDRFSGSGSGTDFTLKISRVEAEDVGVYYCAQGTSVPFTFGQGTKLEIK
Reply | 1 (yes)

Ask | // inclusive: fold change of affinity at least 0.5 fold? input: H183/L072 VH Y58I (antibody, name in Kabat numbering, V domains shown) VH: QVQLVESGGGLVQPGRSLRLSCAASGFTFSNAWMHWVRQAPGKGLEWVAQIKDKGNAYAAIYAPSVKGRFTISRDDSKNSIYLQMNSLKTEDTAVYYCHYVHYASASTVLPAFGVDAWGQGTTVTVSS VL: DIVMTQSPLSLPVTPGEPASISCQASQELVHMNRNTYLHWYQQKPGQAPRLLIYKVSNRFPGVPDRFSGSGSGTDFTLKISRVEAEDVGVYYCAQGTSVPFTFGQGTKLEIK
Reply | 0 (no)

Ask | // inclusive: fold change of affinity at least 0.5 fold? input: H183/L072 VH F29H (antibody, name in Kabat numbering, V domains shown) VH: QVQLVESGGGLVQPGRSLRLSCAASGFTHSNAWMHWVRQAPGKGLEWVAQIKDKGNAYAAYYAPSVKGRFTISRDDSKNSIYLQMNSLKTEDTAVYYCHYVHYASASTVLPAFGVDAWGQGTTVTVSS VL: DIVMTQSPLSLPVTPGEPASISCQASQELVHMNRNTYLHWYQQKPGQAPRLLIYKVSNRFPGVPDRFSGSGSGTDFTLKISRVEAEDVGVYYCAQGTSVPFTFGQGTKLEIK
Reply | 0 (no)

Further cases:
Ask | // inclusive: fold change of affinity at least 0.5 fold? input: H183/L072 VH S99P (antibody, name in Kabat numbering, V domains shown) VH: QVQLVESGGGLVQPGRSLRLSCAASGFTFSNAWMHWVRQAPGKGLEWVAQIKDKGNAYAAYYAPSVKGRFTISRDDSKNSIYLQMNSLKTEDTAVYYCHYVHYAPASTVLPAFGVDAWGQGTTVTVSS VL: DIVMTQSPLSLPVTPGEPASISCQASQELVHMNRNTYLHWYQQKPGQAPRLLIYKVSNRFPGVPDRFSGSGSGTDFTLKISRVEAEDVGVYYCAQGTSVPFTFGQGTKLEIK
Reply | 1 (yes)

Ask | // inclusive: fold change of affinity at least 0.5 fold? input: H183/L072 VH S30Q (antibody, name in Kabat numbering, V domains shown) VH: QVQLVESGGGLVQPGRSLRLSCAASGFTFQNAWMHWVRQAPGKGLEWVAQIKDKGNAYAAYYAPSVKGRFTISRDDSKNSIYLQMNSLKTEDTAVYYCHYVHYASASTVLPAFGVDAWGQGTTVTVSS VL: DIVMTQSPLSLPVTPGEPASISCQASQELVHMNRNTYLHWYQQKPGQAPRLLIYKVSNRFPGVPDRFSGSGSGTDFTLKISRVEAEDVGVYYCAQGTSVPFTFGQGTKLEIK
Reply | 1 (yes)

Ask | // inclusive: fold change of affinity at least 0.5 fold? input: H183/L072 VH Y55M (antibody, name in Kabat numbering, V domains shown) VH: QVQLVESGGGLVQPGRSLRLSCAASGFTFSNAWMHWVRQAPGKGLEWVAQIKDKGNAMAAYYAPSVKGRFTISRDDSKNSIYLQMNSLKTEDTAVYYCHYVHYASASTVLPAFGVDAWGQGTTVTVSS VL: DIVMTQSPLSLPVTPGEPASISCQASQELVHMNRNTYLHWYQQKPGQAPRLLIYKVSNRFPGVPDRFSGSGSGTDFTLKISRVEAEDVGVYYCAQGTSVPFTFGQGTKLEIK
Reply | 1 (yes)

Ask | // inclusive: fold change of affinity at least 0.5 fold? input: H183/L072 VH S30K (antibody, name in Kabat numbering, V domains shown) VH: QVQLVESGGGLVQPGRSLRLSCAASGFTFKNAWMHWVRQAPGKGLEWVAQIKDKGNAYAAYYAPSVKGRFTISRDDSKNSIYLQMNSLKTEDTAVYYCHYVHYASASTVLPAFGVDAWGQGTTVTVSS VL: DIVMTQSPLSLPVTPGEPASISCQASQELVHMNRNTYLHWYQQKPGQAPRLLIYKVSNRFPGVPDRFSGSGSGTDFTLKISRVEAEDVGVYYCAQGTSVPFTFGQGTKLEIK
Reply | 1 (yes)
